Biological target: GlcNAc(a1-4)Gal(b1-4)GlcNAc
Assay: glycan array binding signal (z-score within array); higher = stronger binding
Settings: glycan notation: IUPAC condensed, linker removed
The sample as a whole holds a higher share of the strongest signals than the screen did.
Classify by measured glycan array binding signal (z-score): Criterion met if it is equal to or exceeds -0.2, Criterion not met if it is smaller.

binder: CTAEGIKKFEGDGYELFKDNFPAGEKFDNDDTNDQFYTVIF [MUB40 (Lactobacillus reuteri)]
category_label: Criterion not met
//
binder: CLEC-1 (Homo sapiens), Q9NZH3 (protein) MQAKYSSTRDMLDDDGDTTMSLHSQASATTRHPEPRRTEHRAPSSTWRPVALTLLTLCLVLLIGLAAWGLLFFQYYQLSNTGQDTISQMEERLGNTSQELQSLQVQNIKLAGSLQHVAEKLCRELYNKAGAHRCSPCTEQWKWHGDNCYQFYKDSKSWEDCKYFCLSENSTMLKINKQEDLEFAASQSYSEFFYSYWTGLLRPDSGKAWLWMDGTPFTSELFHIIIDVTSPRSRDCVAILNGMIFSKDCKELKRCVCERRAGMVKPESLHVPPETLGEGD
category_label: Criterion met
//
binder: CLEC5A (Homo sapiens), Q9NY25 (protein) MNWHMIISGLIVVVLKVVGMTLFLLYFPQIFNKSNDGFTTTRSYGTVSQIFGSSSPSPNGFITTRSYGTVCPKDWEFYQARCFFLSTSESSWNESRDFCKGKGSTLAIVNTPEKLKFLQDITDAEKYFIGLIYHREEKRWRWINNSVFNGNVTNQNQNFNCATIGLTKTFDAASCDISYRRICEKNAK
category_label: Criterion met
//
binder: GSL-I-B4 (Griffonia simplicifolia) (protein) NFWSDVEDSIIFQGDANTTAGTLQLCKTNQYGTPLQWSAGRALYSDPVQLWDNKTESVASFYTEFTFFLKITGNGPADGLAFFLAPPDSDVKDAGEYLGLFNKSTATQPSKNQVVAVEFDTWTNPNFPEPSYRHIGINVNSIVSVATKRWEDSDIFSGKIATARISYDGSAEILTVVLSYPDGSDYILSHSVDMRQNLPESVRVGISASTGNNQFLTVYILSWRFSSNLQSTSVKAAMEPEITRTVV
category_label: Criterion met
//
binder: XCL (Xerocomus chrysenteron) (protein) MSYSITLRVYQTNRDRGYFSIVEKTVWHFANGGTWSEANGAHTLTQGGSGTSGVLRFLSTKGERITVAVGVHNYKRWCDVVTGLKPDETALVINPQYYNNGGRDYVREKQLAEYSVTSAIGTKVEVVYTVAEGNNLEANVIFS
category_label: Criterion met
//
binder: UDA (Urtica dioica), P11218 (protein) MMMRFLSAVVIMSSAMAVGLVSAQRCGSQGGGGTCPALWCCSIWGWCGDSEPYCGRTCENKCWSGERSDHRCGAAVGNPPCGQDRCCSVHGWCGGGNDYCSGSKCQYRCSSSVRGPRVALSGNSTANSIGNVVVTEPLFDQMFSHRKDCPSQGFYSYHSFLVAAESFPAFGTIGDVATRKREVAAFLAHISQATSGERSDVENPHAWGLCHINTTTVTENDFCTSSDWPCAAGKKYSPRGPIQLTHNFNYGLAGQAIGEDLIQNPDLVEKDPIISFKTALWFWMSQHDNKPSCHDIVLNANSAANRIPNKGVIGNIISRAFGHDDFAVRSSSIGFYKRYCDMLGVSYGHDLKYWFDNTPSSEFQRIQMRVAA
category_label: Criterion met
//
binder: Clec49 (Caenorhabditis elegans) (protein) MTRLTLLLFGLLGAATAQTCNTGGIYNEQFNRCYQYFTAPAQFSFAEQQCNLLGGHLASVQNGQENALLQSNAANSFKRSNYSDYWIGATDLETSGTWKWTDPSVTFDYSNWQLGEPQSGSDCAIQDKGDGTWSAIGCTSYRPYVCVTPVIMTATCPPITTPIPTTCPTPAPCPIKQCVPSCDQGWTYFSPTDFCYRVYHGEKFNDAEASCVLLGGHLASIHSLTENTFVNNIASCGIKEGKYEHLAWIGMRKVGQDWVWTDGTPSDYFNWAPKQPDNPKKELCVQTAPDLSHDKWYENWNNLECNEVMRAYICKKASIHN
category_label: Criterion met
//
binder: GNL (Galanthus nivalis) (protein) MGHHHHHHHHYGTLENGHWLMVGMSIFSKDRTVELRMQDDGKLAIYYNDHCAWQSTAQQVNNAKGAVMQGDGNFCIYDKNGKATWHTNTAAPSGDSHTFVSVQDDGNLVLYKNNGATPIWSSKSNK
category_label: Criterion not met
//
binder: DC-ASGPR L+GEE (Homo sapiens) (protein) MTRTYENFQYLENKVKVQGFKNGPLPLQSLLQRLRSGPCHLLLSLGLGLLLLVIICVVGFQNSKFQRDLVTLRTDFSNFTSNTVAEIQALTSQGSSLEETIASLKAEVEGFKQERQAGVSELQEHTTQKAHLGHCPHCPSVCVPVHSEMLLRVQQLVQDLKKLTCQVATLNNNGEEASTEGTCCPVNWVEHQDSCYWFSHSGMSWAEAEKYCQLKNAHLVVINSREEQNFVQKYLGSAYTWMGLSDPEGAWKWVDGTDYATGFQNWKPGQPDDWQGHGLGGGEDCAHFHPDGRWNDDVCQRPYHWVCEAGLGQTSQESH
category_label: Criterion not met
//
binder: SynCAM (Mus musculus) (protein) MASAVLPSGSQCAAAAAVAAAAAPPGLRLRLLLLLLSAAALIPTGDGQNLFTKDVTVIEGEVATISCQVNKSDDSVIQLLNPNRQTIYFRDFRPLKDSRFQLLNFSSSELKVSLTNVSISDEGRYFCQLYTDPPQESYTTITVLVPPRNLMIDIQKDTAVEGEEIEVNCTAMASKPATTIRWFKGNKELKGKSEVEEWSDMYTVTSQLMLKVHKEDDGVPVICQVEHPAVTGNLQTQRYLEVQYKPQVHIQMTYPLQGLTREGDAFELTCEAIGKPQPVMVTWVRVDDEMPQHAVLSGPNLFINNLNKTDNGTYRCEASNIVGKAHSDYMLYVYDPPTTIPPP
category_label: Criterion not met
